System: A549
Assay: relative viability (nuclei count vs DMSO), 5 days (fraction); higher = more cells survive
Details: first compound 8 µM
READOUT_LABEL: relative viability

O=c1[nH]c2ccccc2n1C1CCN(CCCC(c2ccc(F)cc2)c2ccc(F)cc2)CC1 [Pimozide] + CS(=O)(=O)N1CCN(Cc2cc3nc(-c4cccc5[nH]ncc45)nc(N4CCOCC4)c3s2)CC1 [Pictilisib] (partner 1 µM)    0.448
O=c1[nH]c2ccccc2n1C1CCN(CCCC(c2ccc(F)cc2)c2ccc(F)cc2)CC1 [Pimozide] + CS(=O)(=O)CCNCc1ccc(-c2ccc3ncnc(Nc4ccc(OCc5cccc(F)c5)c(Cl)c4)c3c2)o1 [Lapatinib] (partner 2 µM)    0.802
O=c1[nH]c2ccccc2n1C1CCN(CCCC(c2ccc(F)cc2)c2ccc(F)cc2)CC1 [Pimozide] + C[C@]1(O)C[C@@H](c2nc(-c3ccc4ccc(-c5ccccc5)nc4c3)c3c(N)nccn32)C1 [Linsitinib] (partner 1 µM)    0.619
O=c1[nH]c2ccccc2n1C1CCN(CCCC(c2ccc(F)cc2)c2ccc(F)cc2)CC1 [Pimozide] + Cc1nc(NC(=O)N2CCC[C@H]2C(N)=O)sc1-c1ccnc(C(C)(C)C(F)(F)F)c1 [Alpelisib] (partner 2 µM)    0.617

###

Test system: PC-3 [JPC-3]
Assay: relative viability (nuclei count vs DMSO), 5 days (fraction); higher = more cells survive
Details: first compound 0.8 µM
READOUT_LABEL: relative viability

O=c1[nH]c2ccccc2n1C1CCN(CCCC(c2ccc(F)cc2)c2ccc(F)cc2)CC1 [Pimozide] + Nc1ncn([C@H]2C[C@H](O)[C@@H](CO)O2)c(=O)n1 [Decitabine] (partner 2 µM)    0.823
O=c1[nH]c2ccccc2n1C1CCN(CCCC(c2ccc(F)cc2)c2ccc(F)cc2)CC1 [Pimozide] + O=C(c1cc(Cc2n[nH]c(=O)c3ccccc23)ccc1F)N1CCN(C(=O)C2CC2)CC1 [Olaparib] (partner 8 µM)    1.1
O=c1[nH]c2ccccc2n1C1CCN(CCCC(c2ccc(F)cc2)c2ccc(F)cc2)CC1 [Pimozide] + Cc1cc(Nc2cc(N3CCN(C)CC3)nc(Sc3ccc(NC(=O)C4CC4)cc3)n2)n[nH]1 [Tozasertib] (partner 0.1 µM)    0.754

###

Tested on: NCI-H1650
Assay: relative viability (nuclei count vs DMSO), 5 days (fraction); higher = more cells survive
Settings: first compound 2.53 µM
READOUT_LABEL: relative viability

Cc1cnc(-c2cnc(NCCNc3ccc(C#N)cn3)nc2-c2ccc(Cl)cc2Cl)[nH]1 + C[C@@H](Oc1cc(-c2cnn(C3CCNCC3)c2)cnc1N)c1c(Cl)ccc(F)c1Cl [Crizotinib] (partner 1 µM)    0.844
Cc1cnc(-c2cnc(NCCNc3ccc(C#N)cn3)nc2-c2ccc(Cl)cc2Cl)[nH]1 + COc1cc2c(Oc3ccc(NC(=O)C4(C(=O)Nc5ccc(F)cc5)CC4)cc3F)ccnc2cc1OCCCN1CCOCC1 [Foretinib] (partner 0.25 µM)    1.01
Cc1cnc(-c2cnc(NCCNc3ccc(C#N)cn3)nc2-c2ccc(Cl)cc2Cl)[nH]1 + CC(=O)c1c(C)c2cnc(Nc3ccc(N4CCNCC4)cn3)nc2n(C2CCCC2)c1=O [Palbociclib] (partner 0.5 µM)    0.258
Cc1cnc(-c2cnc(NCCNc3ccc(C#N)cn3)nc2-c2ccc(Cl)cc2Cl)[nH]1 + CC1(C)CCC(c2ccc(Cl)cc2)=C(CN2CCN(c3ccc(C(=O)NS(=O)(=O)c4ccc(N[C@H](CCN5CCOCC5)CSc5ccccc5)c(S(=O)(=O)C(F)(F)F)c4)cc3)CC2)C1 [Navitoclax] (partner 0.5 µM)    1.21
O=c1[nH]c2ccccc2n1C1CCN(CCCC(c2ccc(F)cc2)c2ccc(F)cc2)CC1 [Pimozide] + C[C@@H](Oc1cc(-c2cnn(C3CCNCC3)c2)cnc1N)c1c(Cl)ccc(F)c1Cl [Crizotinib] (partner 1 µM)    0.891
Cc1cnc(-c2cnc(NCCNc3ccc(C#N)cn3)nc2-c2ccc(Cl)cc2Cl)[nH]1 + CC(C)C[C@H](NC(=O)[C@H](Cc1ccccc1)NC(=O)c1cnccn1)B(O)O [Bortezomib] (partner 0.002 µM)    0.207
O=c1[nH]c2ccccc2n1C1CCN(CCCC(c2ccc(F)cc2)c2ccc(F)cc2)CC1 [Pimozide] + Nc1nc2[nH]cc(CCc3ccc(C(=O)N[C@@H](CCC(=O)O)C(=O)O)cc3)c2c(=O)[nH]1 [Pemetrexed] (partner 0.2 µM)    0.356
O=c1[nH]c2ccccc2n1C1CCN(CCCC(c2ccc(F)cc2)c2ccc(F)cc2)CC1 [Pimozide] + Nc1ncn([C@H]2C[C@H](O)[C@@H](CO)O2)c(=O)n1 [Decitabine] (partner 2 µM)    0.404
O=c1[nH]c2ccccc2n1C1CCN(CCCC(c2ccc(F)cc2)c2ccc(F)cc2)CC1 [Pimozide] + CC(C)C[C@H](NC(=O)[C@H](Cc1ccccc1)NC(=O)c1cnccn1)B(O)O [Bortezomib] (partner 0.002 µM)    0.177
O=c1[nH]c2ccccc2n1C1CCN(CCCC(c2ccc(F)cc2)c2ccc(F)cc2)CC1 [Pimozide] + N=C(N)NC(=N)NCCc1ccccc1 [Phenformin] (partner 250 µM)    0.418
O=c1[nH]c2ccccc2n1C1CCN(CCCC(c2ccc(F)cc2)c2ccc(F)cc2)CC1 [Pimozide] + CCNC(=O)c1noc(-c2cc(C(C)C)c(O)cc2O)c1-c1ccc(CN2CCOCC2)cc1 [Luminespib] (partner 0.01 µM)    0.187
Cc1cnc(-c2cnc(NCCNc3ccc(C#N)cn3)nc2-c2ccc(Cl)cc2Cl)[nH]1 + CCNC(=O)c1noc(-c2cc(C(C)C)c(O)cc2O)c1-c1ccc(CN2CCOCC2)cc1 [Luminespib] (partner 0.01 µM)    0.193
